TARGET_OF_ASSAY: EGFR (L858R/C797S) (Homo sapiens, UniProt P00533, C797S/L858R)
Sequence (P00533 25-1210 C797S/L858R): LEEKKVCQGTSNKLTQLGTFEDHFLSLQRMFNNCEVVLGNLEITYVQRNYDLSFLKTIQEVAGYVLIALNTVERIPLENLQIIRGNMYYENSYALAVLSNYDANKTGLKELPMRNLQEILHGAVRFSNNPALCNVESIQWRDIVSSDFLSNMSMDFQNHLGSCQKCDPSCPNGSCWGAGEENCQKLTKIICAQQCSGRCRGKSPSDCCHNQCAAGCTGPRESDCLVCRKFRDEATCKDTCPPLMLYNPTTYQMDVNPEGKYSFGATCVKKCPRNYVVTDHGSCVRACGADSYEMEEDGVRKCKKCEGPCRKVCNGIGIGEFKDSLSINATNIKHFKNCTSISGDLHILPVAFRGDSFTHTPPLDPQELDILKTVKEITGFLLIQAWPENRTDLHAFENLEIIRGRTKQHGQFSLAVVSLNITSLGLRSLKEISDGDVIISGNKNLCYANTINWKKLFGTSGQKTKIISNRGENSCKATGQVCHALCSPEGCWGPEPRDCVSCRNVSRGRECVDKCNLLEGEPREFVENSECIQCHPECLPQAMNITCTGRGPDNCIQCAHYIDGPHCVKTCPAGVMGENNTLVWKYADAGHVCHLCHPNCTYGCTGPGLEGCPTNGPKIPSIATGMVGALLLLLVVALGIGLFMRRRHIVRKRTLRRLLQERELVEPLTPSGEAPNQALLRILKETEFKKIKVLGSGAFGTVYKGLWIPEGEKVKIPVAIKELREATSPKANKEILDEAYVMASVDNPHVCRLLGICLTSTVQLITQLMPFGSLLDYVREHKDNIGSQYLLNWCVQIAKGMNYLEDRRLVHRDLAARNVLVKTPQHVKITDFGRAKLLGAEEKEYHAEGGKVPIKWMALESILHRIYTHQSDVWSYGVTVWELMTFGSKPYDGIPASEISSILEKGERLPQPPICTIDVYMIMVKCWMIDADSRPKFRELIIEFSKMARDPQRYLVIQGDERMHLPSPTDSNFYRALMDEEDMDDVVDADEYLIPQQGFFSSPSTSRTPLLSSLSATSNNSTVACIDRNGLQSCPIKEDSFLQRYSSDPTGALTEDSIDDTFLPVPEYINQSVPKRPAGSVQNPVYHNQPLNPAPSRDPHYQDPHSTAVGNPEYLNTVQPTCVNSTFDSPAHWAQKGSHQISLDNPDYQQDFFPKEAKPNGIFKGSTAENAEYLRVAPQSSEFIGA
TEST: MSA (Mobility Shift Assay) kinase activity, EGFR-L858R-C797S
Assay type: biochemical
REPORTED_PROPERTY: log10(IC50) (log10 of the value in nM)
// units: nM (pre-log); metric: IC50; scale: log10

Example entries begin here.
{"columns": ["MOLECULE", "ASSAY_RESULT"],
 "data": [
  ["CC(C)c1ccc(N2CC(NS(=O)(=O)C3CC3)C2)c2cnc(Nc3ccnc(N4CCC(O)C(F)C4)n3)cc12 (stereo not shown) [Compound P23]", 0.91],
  ["CC(C)c1ccc(N2CC(CS(C)(=O)=O)C2)c2cnc(Nc3ccnc(-c4cnn(S(=O)(=O)C5CCC5)c4)n3)cc12 [Compound H13]", 0.40],
  ["CC(C)c1cc(C#N)c(N2CC(CS(C)(=O)=O)C2)c2cnc(Nc3ccnc(N4CCC(O)C(F)C4)n3)cc12 (stereo not shown) [Compound P16]", 1.38],
  ["CC(C)n1c(=O)cc(N2CC(CS(C)(=O)=O)C2)c2cnc(Nc3ccnc(N4CCC(O)C(F)C4)n3)cc21 (stereo not shown) [Compound P14]", 1.07],
  ["CC(C)c1ccc(N2CC(CS(C)(=O)=O)C2)c2cnc(Nc3ccnc(-c4cnn(S(=O)(=O)C(F)(F)F)c4)n3)cc12 [Compound H8]", 0.81]
]}

Proceeding to the next molecule to report its log10(IC50).
Record request: log10(IC50) value, item CC(C)c1ccc(N2CC(NC(=O)N(C)C)C2)c2cnc(Nc3ccnc(N4CCC(O)C(F)C4)n3)cc12 (stereo not shown) [Compound P10]
1.61

###

TARGET_OF_ASSAY: EGFR (L858R) (Homo sapiens, UniProt P00533, L858R)
TEST: MSA (Mobility Shift Assay) kinase activity, EGFR-L858R
Type: biochemical
REPORTED_PROPERTY: IC50 (nM)
Output spec: scalar in nM, unitless text.

Example entries begin here.
{"columns": ["MOLECULE", "IC50 (nM)"],
 "data": [
  ["CC(C)c1ccc(N2C[C@H](NS(C)(=O)=O)[C@H]2C)c2cnc(Nc3ccnc(N4CCC(O)C(F)C4)n3)cc12 (stereo partly shown)", 0.77],
  ["CC(C)c1ccc(N2CC(N(C)S(C)(=O)=O)C2)c2cnc(Nc3ccnc(N4CC[C@@H](O)[C@@H](F)C4)n3)cc12 [Compound P39a]", 1.1],
  ["CNC(=O)CN1CC(c2ccc(C(C)C)c3cc(Nc4ccnc(N5CCC(O)C(F)C5)n4)ncc23)C1 (stereo not shown)", 98.9]
]}

Record request: IC50 value, item CC(C)c1ccc(N2CC(NS(C)(=O)=O)C2)c2cnc(Nc3ccnc(N4CCC(O)C(C)(F)C4)n3)cc12 (stereo not shown) [Compound P46]
6.2

###

Item-by-item account of GI50
TARGET_OF_ASSAY: Ba/F3-FL-EGFR-L858R-T790M-C797S (Homo sapiens, UniProt P00533, T790M/C797S/L858R, cells depend on it)
Sequence (P00533 whole entry T790M/C797S/L858R): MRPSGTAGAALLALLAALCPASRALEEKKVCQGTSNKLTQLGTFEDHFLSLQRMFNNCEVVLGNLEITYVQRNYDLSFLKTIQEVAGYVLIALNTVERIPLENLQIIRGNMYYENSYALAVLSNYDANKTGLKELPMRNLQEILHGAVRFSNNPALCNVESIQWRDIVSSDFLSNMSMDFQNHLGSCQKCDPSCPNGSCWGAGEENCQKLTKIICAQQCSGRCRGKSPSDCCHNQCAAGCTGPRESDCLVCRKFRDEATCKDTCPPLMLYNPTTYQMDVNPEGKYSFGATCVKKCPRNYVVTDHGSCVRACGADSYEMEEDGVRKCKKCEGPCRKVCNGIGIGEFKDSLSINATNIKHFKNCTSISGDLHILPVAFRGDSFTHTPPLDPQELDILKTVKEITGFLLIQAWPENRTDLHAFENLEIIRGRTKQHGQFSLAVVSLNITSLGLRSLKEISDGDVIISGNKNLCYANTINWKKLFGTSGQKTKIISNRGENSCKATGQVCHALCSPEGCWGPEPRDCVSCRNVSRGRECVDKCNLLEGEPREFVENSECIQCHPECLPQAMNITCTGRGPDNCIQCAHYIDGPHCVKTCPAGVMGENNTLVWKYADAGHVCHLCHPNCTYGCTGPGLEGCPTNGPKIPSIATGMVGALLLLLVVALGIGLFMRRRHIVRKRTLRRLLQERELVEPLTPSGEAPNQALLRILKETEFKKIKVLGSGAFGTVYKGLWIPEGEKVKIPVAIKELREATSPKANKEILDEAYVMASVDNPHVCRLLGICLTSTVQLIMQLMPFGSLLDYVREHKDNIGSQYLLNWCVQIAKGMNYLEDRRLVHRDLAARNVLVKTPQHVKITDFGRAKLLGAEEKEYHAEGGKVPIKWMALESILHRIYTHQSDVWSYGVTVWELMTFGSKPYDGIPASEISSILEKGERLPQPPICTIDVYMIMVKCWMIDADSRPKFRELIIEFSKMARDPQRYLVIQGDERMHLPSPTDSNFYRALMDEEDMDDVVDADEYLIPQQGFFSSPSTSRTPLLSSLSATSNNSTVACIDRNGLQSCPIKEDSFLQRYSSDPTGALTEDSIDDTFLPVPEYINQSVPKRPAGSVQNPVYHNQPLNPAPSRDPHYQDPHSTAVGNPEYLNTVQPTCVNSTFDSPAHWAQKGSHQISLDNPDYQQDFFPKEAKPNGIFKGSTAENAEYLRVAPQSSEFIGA
TEST: CellTiter-Glo proliferation, Ba/F3-FL-EGFR-L858R-T790M-C797S
Type: cell-based
APPLIED_CONDITIONS: 72 hours, read-out: Ba/F3-FL-EGFR-L858R-T790M-C797S IC50/nM
Output spec: scalar in nM, unitless text.

{"columns": ["MOLECULE", "ASSAY_RESULT"],
 "data": [
  ["CC(C)c1ccc(N2C[C@H](N(C)S(C)(=O)=O)[C@H]2C)c2cnc(Nc3ccnc(N4CC[C@@H](O)[C@@H](F)C4)n3)cc12 [Compound P41a]", 4.6]
]}

Record request: GI50 value, item CCCS(=O)(=O)N[C@H]1CN(c2ccc(C(C)C)c3cc(Nc4ccnc(N5CCC(OC)C(F)C5)n4)ncc23)[C@@H]1C (stereo partly drawn)
8.9

Record request: GI50 value, item CC(C)c1ccc(N2CC(CS(C)(=O)=O)C2)c2cnc(Nc3ccnc(-c4cn[nH]c4)n3)cc12
462

###

TARGET_OF_ASSAY: EGFR (L858R) (Homo sapiens, UniProt P00533, L858R)
TEST: MSA (Mobility Shift Assay) kinase activity, EGFR-L858R
Format: biochemical
REPORTED_PROPERTY: IC50 (nM)
Output spec: scalar in nM, unitless text.

Example entries begin here.
{"columns": ["MOLECULE", "REPORTED_PROPERTY", "READING_UNIT", "ASSAY_RESULT"],
 "data": [
  ["CC(C)c1ccc(N2CC(CS(C)(=O)=O)C2)c2cnc(Nc3ccnc(-c4cn[nH]c4)n3)cc12 [Compound H3]", "IC50", "nM", 5.6],
  ["CC(C)c1ccc(N2CC(CS(C)(=O)=O)C2)c2cnc(Nc3ccnc(-c4cnn(S(=O)(=O)C5CCC5)c4)n3)cc12 [Compound H13]", "IC50", "nM", 1.8]
]}

Proceeding to the next molecule to report its IC50.
Record request: IC50 value, item CCCS(=O)(=O)n1cc(-c2nccc(Nc3cc4c(C(C)C)ccc(N5CC(CS(C)(=O)=O)C5)c4cn3)n2)cn1 [Compound H6]
1.5

###

Item-by-item account of log10(IC50)
TARGET_OF_ASSAY: EGFR (L858R/T790M/C797S) (Homo sapiens, UniProt P00533, C797S/L858R/T790M)
Sequence (P00533 25-1210 T790M/C797S/L858R): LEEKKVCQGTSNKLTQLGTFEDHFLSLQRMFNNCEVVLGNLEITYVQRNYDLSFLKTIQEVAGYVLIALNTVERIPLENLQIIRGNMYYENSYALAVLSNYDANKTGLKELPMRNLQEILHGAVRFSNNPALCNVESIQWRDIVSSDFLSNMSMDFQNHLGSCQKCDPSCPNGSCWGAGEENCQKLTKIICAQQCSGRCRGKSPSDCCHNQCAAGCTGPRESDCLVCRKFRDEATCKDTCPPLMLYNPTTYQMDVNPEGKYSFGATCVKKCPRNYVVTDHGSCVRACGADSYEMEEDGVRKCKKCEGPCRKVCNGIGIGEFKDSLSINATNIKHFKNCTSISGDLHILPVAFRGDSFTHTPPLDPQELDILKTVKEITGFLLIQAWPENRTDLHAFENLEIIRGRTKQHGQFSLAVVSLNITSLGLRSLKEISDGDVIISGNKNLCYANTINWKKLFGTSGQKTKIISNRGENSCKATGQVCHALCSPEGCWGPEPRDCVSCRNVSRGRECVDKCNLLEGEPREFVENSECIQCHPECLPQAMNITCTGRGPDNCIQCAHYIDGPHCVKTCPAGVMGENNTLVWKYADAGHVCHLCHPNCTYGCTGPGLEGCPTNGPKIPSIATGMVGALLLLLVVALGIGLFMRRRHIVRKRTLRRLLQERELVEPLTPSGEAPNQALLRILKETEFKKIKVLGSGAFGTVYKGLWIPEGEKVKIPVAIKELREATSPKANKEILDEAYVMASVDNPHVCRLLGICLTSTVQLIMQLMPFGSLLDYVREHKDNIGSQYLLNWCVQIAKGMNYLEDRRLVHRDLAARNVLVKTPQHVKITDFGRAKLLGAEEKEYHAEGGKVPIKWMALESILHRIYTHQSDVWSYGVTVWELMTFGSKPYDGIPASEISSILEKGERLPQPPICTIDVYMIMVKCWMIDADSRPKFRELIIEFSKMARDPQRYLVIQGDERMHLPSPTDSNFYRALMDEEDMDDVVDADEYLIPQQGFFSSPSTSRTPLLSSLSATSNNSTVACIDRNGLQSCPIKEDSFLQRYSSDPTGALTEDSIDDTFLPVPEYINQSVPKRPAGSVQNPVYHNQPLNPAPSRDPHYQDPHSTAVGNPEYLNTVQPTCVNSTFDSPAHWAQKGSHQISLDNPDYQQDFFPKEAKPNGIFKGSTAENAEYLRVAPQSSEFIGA
TEST: MSA (Mobility Shift Assay) kinase activity, EGFR-L858R-T790M-C797S
Format: biochemical
// units: nM (pre-log); metric: IC50; scale: log10

{"columns": ["COMPOUND", "ASSAY_RESULT"],
 "data": [
  ["CC(C)c1ccc(N2CC(CS(C)(=O)=O)C2)c2cnc(Nc3ccnc(-c4cnn(S(=O)(=O)C5CCC5)c4)n3)cc12", -0.04],
  ["CC(C)c1ccc(N2CC(CS(C)(=O)=O)C2)c2cnc(Nc3ccnc(-c4cnn(CC(F)(F)F)c4)n3)cc12", -0.36],
  ["CC(C)c1ccc(N2CC3(C2)CN(S(C)(=O)=O)C3)c2cnc(Nc3ccnc(N4CCC(O)C(F)C4)n3)cc12 (stereo not shown)", 0.68],
  ["CC(C)c1ccc(N2CC(NS(C)(=O)=O)C2)c2cnc(Nc3ccnc(N4CCC(O)C(F)C4)n3)cc12 (stereo not shown)", -1.22],
  ["CC(C)c1ccc(N2CC(NS(=O)(=O)C3CC3)C2)c2cnc(Nc3ccnc(N4CCC(O)C(F)C4)n3)cc12 (stereo not shown)", -0.96],
  ["CC(C)c1ccc(N2CC(NS(C)(=O)=O)C2)c2cnc(Nc3ccnc(N4CCC(C)(O)C(F)C4)n3)cc12 (stereo not shown)", -0.92]
]}

Proceeding to the next compound to report its log10(IC50).
Record request: log10(IC50) value, item CNC(=O)CC1CN(c2ccc(C(C)C)c3cc(Nc4ccnc(N5CCC(O)C(F)C5)n4)ncc23)C1 (stereo not shown)
-0.38

###

Item-by-item account of IC50
System: Ba/F3-FL-EGFR-del19-C797S
TEST: CellTiter-Glo proliferation, Ba/F3-FL-EGFR-del19-C797S
Assay type: cell-based
APPLIED_CONDITIONS: 72 h, proliferation, 72 hours, CellTiter-Glo; read-out: Ba/F3-FL-EGFR-del19-C797S IC50/nM
Please state the value followed by its unit.

{"columns": ["COMPOUND", "IC50"],
 "data": [
  ["CCCS(=O)(=O)C[C@H]1CN(c2ccc(C(C)C)c3cc(Nc4ccnc(-c5cnn(S(=O)(=O)C6CC6)c5)n4)ncc23)[C@@H]1C [Compound H34]", "37 nM"],
  ["COC1CCN(c2nccc(Nc3cc4c(C(C)C)ccc(N5CC(NS(C)(=O)=O)C5)c4cn3)n2)CC1F (stereo not drawn) [Compound P29]", "202 nM"]
]}

Proceeding to the next compound to report its IC50.
Record request: IC50 value, item CC(C)c1ccc(N2C[C@H](CS(C)(=O)=O)[C@H]2C)c2cnc(Nc3ccnc(-c4cnn(S(=O)(=O)C5CC5)c4)n3)cc12 [Compound H12]
4.3 nM

###

Item-by-item account of GI50
TARGET_OF_ASSAY: Ba/F3-FL-EGFR-L858R (Homo sapiens, UniProt P00533, L858R, cells depend on it)
Sequence (P00533 whole entry L858R): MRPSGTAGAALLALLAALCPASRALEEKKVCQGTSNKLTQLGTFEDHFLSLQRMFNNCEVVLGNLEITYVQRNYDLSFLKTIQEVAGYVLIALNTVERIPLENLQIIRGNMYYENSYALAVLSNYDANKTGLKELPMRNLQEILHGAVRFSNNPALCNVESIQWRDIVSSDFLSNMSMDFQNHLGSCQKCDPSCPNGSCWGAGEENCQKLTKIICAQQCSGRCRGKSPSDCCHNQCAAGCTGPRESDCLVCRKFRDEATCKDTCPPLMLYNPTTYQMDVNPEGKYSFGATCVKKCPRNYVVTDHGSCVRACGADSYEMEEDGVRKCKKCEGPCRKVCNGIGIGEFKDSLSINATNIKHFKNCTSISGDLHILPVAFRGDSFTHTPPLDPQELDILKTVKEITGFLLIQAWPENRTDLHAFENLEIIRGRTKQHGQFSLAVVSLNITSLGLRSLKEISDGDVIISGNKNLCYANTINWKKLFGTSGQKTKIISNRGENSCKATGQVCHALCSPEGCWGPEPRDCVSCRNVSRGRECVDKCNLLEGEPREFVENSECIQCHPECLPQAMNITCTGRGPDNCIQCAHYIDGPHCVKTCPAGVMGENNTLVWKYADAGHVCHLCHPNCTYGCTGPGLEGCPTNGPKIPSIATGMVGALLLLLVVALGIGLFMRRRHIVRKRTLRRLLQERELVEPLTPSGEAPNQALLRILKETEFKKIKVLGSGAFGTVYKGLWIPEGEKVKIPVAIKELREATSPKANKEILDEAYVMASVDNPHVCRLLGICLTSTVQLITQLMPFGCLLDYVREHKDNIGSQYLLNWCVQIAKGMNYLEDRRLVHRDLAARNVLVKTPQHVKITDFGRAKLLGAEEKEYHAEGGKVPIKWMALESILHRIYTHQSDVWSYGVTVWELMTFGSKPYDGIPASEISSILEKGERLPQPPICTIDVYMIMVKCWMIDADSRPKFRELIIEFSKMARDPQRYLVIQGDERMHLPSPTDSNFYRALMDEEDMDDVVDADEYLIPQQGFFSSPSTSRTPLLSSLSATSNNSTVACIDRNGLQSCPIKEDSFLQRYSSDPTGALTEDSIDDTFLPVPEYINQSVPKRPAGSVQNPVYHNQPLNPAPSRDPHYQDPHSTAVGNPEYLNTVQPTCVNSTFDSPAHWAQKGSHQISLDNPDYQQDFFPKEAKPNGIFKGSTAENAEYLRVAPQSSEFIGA
TEST: CellTiter-Glo proliferation, Ba/F3-FL-EGFR-L858R
Type: cell-based
APPLIED_CONDITIONS: 72 hours, read-out: Ba/F3-FL-EGFR-L858R IC50/nM
Output spec: scalar in nM, unitless text.

Example entries begin here.
{"columns": ["MOLECULE", "ASSAY_RESULT"],
 "data": [
  ["CC(C)c1ccc(N2CC(CS(C)(=O)=O)C2)c2cnc(Nc3ccnc(-c4cnn(CC#N)c4)n3)cc12", 74],
  ["CO[C@@H]1CCN(c2nccc(Nc3cc4c(C(C)C)ccc(N5C[C@H](N(C)S(C)(=O)=O)[C@H]5C)c4cn3)n2)C[C@@H]1F [Compound P40a]", 20],
  ["COC1CCN(c2nccc(Nc3cc4c(C(C)C)ccc(N5CC(N(C)S(C)(=O)=O)C5)c4cn3)n2)CC1F (stereo not shown)", 33]
]}

Record request: GI50 value, item CC(C)c1ccc(N2CC(CS(C)(=O)=O)C2)c2cnc(Nc3ccnc(N4CCC(O)C(F)C4)n3)cc12 (stereo not shown) [Control A, reference compound]
176

Record request: GI50 value, item CC(C)c1ccc(N2CC(NS(C)(=O)=O)C2)c2cnc(Nc3ccnc(N4CCC(O)C(F)C4)n3)cc12 (stereo not shown)
76

Record request: GI50 value, item CC(C)c1ccc(N2CC(CS(C)(=O)=O)C2)c2cnc(Nc3ccnc(-c4cnn(S(=O)(=O)C5COC5)c4)n3)cc12
56

Record request: GI50 value, item CC(C)c1ccc(N2CC(N3CCCS3(=O)=O)C2)c2cnc(Nc3ccnc(N4CCC(O)C(F)C4)n3)cc12 (stereo not shown)
206

Record request: GI50 value, item CC(C)c1ccc(N2C[C@H](CS(C)(=O)=O)[C@H]2C)c2cnc(Nc3ccnc(-c4cnn(S(=O)(=O)C5CC5)c4)n3)cc12
7.7

Record request: GI50 value, item CC(C)c1ccc(N2CC(CS(C)(=O)=O)C2)c2cnc(Nc3ccnc(-c4cnn(S(C)(=O)=O)c4)n3)cc12
13

Record request: GI50 value, item CC(C)c1ccc(N2CC(CS(C)(=O)=O)C2)c2cnc(Nc3ccnc(-c4cnn(C)c4)n3)cc12
91

Record request: GI50 value, item CCS(=O)(=O)N(C)[C@H]1CN(c2ccc(C(C)C)c3cc(Nc4ccnc(N5CCC(OC)C(F)C5)n4)ncc23)[C@@H]1C (stereo partly shown)
36

Record request: GI50 value, item CCOCCS(=O)(=O)n1cc(-c2nccc(Nc3cc4c(C(C)C)ccc(N5C[C@H](CS(C)(=O)=O)[C@H]5C)c4cn3)n2)cn1
17

Record request: GI50 value, item COCCS(=O)(=O)n1cc(-c2nccc(Nc3cc4c(C(C)C)ccc(N5CC(CS(C)(=O)=O)C5)c4cn3)n2)cn1 [Compound H15]
5.7
